The entries below come with measured mean nematode size ln(EXT) (ln) values attached.
# System: Caenorhabditis elegans N2
# assay-explanation: mean nematode size ln(EXT) after 48 h, plate-adjusted (DMSO control set to 6) (ln(EXT), control-adjusted); higher = larger nematodes / less growth inhibition
# run-conditions: 100 µM; exposure time 48 h
Structures can show the parent of a compound that is named as a salt.
property-measured: mean nematode size ln(EXT) (ln)

{"compound": "[N-]=[N+]=[N-] [Sodium azide]", "system-name": "Caenorhabditis elegans N2", "endpoint-result": 5.45}
{"compound": "CCCC(CCC)C(=O)O", "system-name": "Caenorhabditis elegans N2", "endpoint-result": 6.03}
{"compound": "Cc1ccccc1N", "system-name": "Caenorhabditis elegans N2", "endpoint-result": 5.73}
{"compound": "CCCCCCCCCCCCCCCCO", "system-name": "Caenorhabditis elegans N2", "endpoint-result": 5.79}
{"compound": "COc1ccc2c(c1)c(CC(=O)O)c(C)n2C(=O)c1ccc(Cl)cc1", "system-name": "Caenorhabditis elegans N2", "endpoint-result": 5.93}
{"compound": "O=C([O-])c1ccccc1.[Na+] [Sodium benzoate]", "system-name": "Caenorhabditis elegans N2", "endpoint-result": 5.76}
{"compound": "CCOP(=S)(OCC)SCCSCC", "system-name": "Caenorhabditis elegans N2", "endpoint-result": 5.72}
{"compound": "NC(=O)N(O)[C@@H]1C=C[C@H](Oc2cccc(Oc3ccc(F)cc3)c2)C1", "system-name": "Caenorhabditis elegans N2", "endpoint-result": 5.05}
{"compound": "O=[N+]([O-])c1ccc(O)cc1 [4-Nitrophenol]", "system-name": "Caenorhabditis elegans N2", "endpoint-result": 5.8}
{"compound": "CCCCc1oc2ccccc2c1C(=O)c1cc(I)c(OCCN(CC)CC)c(I)c1 [Amiodarone HCl]", "system-name": "Caenorhabditis elegans N2", "endpoint-result": 3.85}
{"compound": "CC1=C(/C=C/C(C)=C/C=C/C(C)=C/CO)C(C)(C)CCC1", "system-name": "Caenorhabditis elegans N2", "endpoint-result": 5.84}
{"compound": "CC(C)(c1ccccc1)c1ccc(O)cc1", "system-name": "Caenorhabditis elegans N2", "endpoint-result": 5.3}
{"compound": "CCOc1nc(F)cc2nc(S(=O)(=O)Nc3c(Cl)cccc3Cl)nn12", "system-name": "Caenorhabditis elegans N2", "endpoint-result": 6.17}
{"compound": "CCCCCCCCCCCO", "system-name": "Caenorhabditis elegans N2", "endpoint-result": 3.74}
{"compound": "COCCOCCOCCOC", "system-name": "Caenorhabditis elegans N2", "endpoint-result": 5.81}
{"compound": "OC[C@@H](O)[C@@H](O)[C@H](O)[C@H](O)CO", "system-name": "Caenorhabditis elegans N2", "endpoint-result": 5.94}
{"compound": "COC(=O)c1c(Cl)c(Cl)c(C(=O)OC)c(Cl)c1Cl", "system-name": "Caenorhabditis elegans N2", "endpoint-result": 5.56}
{"compound": "O=S1OCC2C(CO1)C1(Cl)C(Cl)=C(Cl)C2(Cl)C1(Cl)Cl (configuration not stated) [Endosulfan]", "system-name": "Caenorhabditis elegans N2", "endpoint-result": 3.24}
{"compound": "CNC(C)=O [N-Methylacetamide]", "system-name": "Caenorhabditis elegans N2", "endpoint-result": 6.07}
{"compound": "c1ccc(C(O[C@@H]2CCCN(CCc3ccc4c(c3)OCO4)C2)c2ccccc2)cc1", "system-name": "Caenorhabditis elegans N2", "endpoint-result": 4.17}
{"compound": "O=[N+]([O-])c1ccc(Cl)cc1", "system-name": "Caenorhabditis elegans N2", "endpoint-result": 6}
{"compound": "O=C(OCCCCCOC(=O)c1ccccc1)c1ccccc1 [1,5-Pentanediol,1,5-dibenzoate]", "system-name": "Caenorhabditis elegans N2", "endpoint-result": 5.98}
{"compound": "CCNc1nc(NC(C)C)nc(SC)n1", "system-name": "Caenorhabditis elegans N2", "endpoint-result": 6.38}
{"compound": "Oc1cccc(O)c1", "system-name": "Caenorhabditis elegans N2", "endpoint-result": 5.84}
{"compound": "CCCCCCC(CCCCCCCCCCC(=O)OCC(COC(C)=O)OC(C)=O)OC(C)=O (configuration not stated)", "system-name": "Caenorhabditis elegans N2", "endpoint-result": 5.58}
{"compound": "CCCC1COC(Cn2cncn2)(c2ccc(Cl)cc2Cl)O1 (configuration not stated)", "system-name": "Caenorhabditis elegans N2", "endpoint-result": 5.93}
{"compound": "Cc1cccc(N)c1N", "system-name": "Caenorhabditis elegans N2", "endpoint-result": 5.79}
{"compound": "O=P(O)(O)CCCl", "system-name": "Caenorhabditis elegans N2", "endpoint-result": 6.05}
{"compound": "C1CCC(SSC2CCCCC2)CC1 [Dicyclohexyl disulfide]", "system-name": "Caenorhabditis elegans N2", "endpoint-result": 5.62}
{"compound": "CC(=O)OCCOCCOCCOC(C)=O [Triethylene Glycol Diacetate]", "system-name": "Caenorhabditis elegans N2", "endpoint-result": 5.96}
{"compound": "Cc1oc(-c2ccccc2)nc1CCOc1cccc2c1ccn2CCC(=O)O", "system-name": "Caenorhabditis elegans N2", "endpoint-result": 5.81}
{"compound": "N#CSCSc1nc2ccccc2s1", "system-name": "Caenorhabditis elegans N2", "endpoint-result": 3.48}
{"compound": "CCOP(=O)(OCC)Oc1nc(Cl)c(Cl)cc1Cl", "system-name": "Caenorhabditis elegans N2", "endpoint-result": 3.24}
{"compound": "CC(C)OC(=O)C(C)(C)Oc1ccc(C(=O)c2ccc(Cl)cc2)cc1 [Fenofibrate]", "system-name": "Caenorhabditis elegans N2", "endpoint-result": 4.62}
{"compound": "CNC(=O)Oc1ccccc1OC(C)C", "system-name": "Caenorhabditis elegans N2", "endpoint-result": 6.46}
{"compound": "Cc1c(-c2cccnc2)c2ccccc2n1CCCCC(=O)O [5-[2-methyl-3-(pyridin-3-yl)-1H-indol-1-yl]pentanoic acid]", "system-name": "Caenorhabditis elegans N2", "endpoint-result": 5.87}
{"compound": "CCOC(=O)c1ccc(C2CCC(NC[C@H](O)COc3ccc(O)c(NS(C)(=O)=O)c3)CC2)cc1 (some centres not stated)", "system-name": "Caenorhabditis elegans N2", "endpoint-result": 5.57}
{"compound": "CCCCOC(=O)CCCCCCCCC(=O)OCCCC [Dibutyl sebacate]", "system-name": "Caenorhabditis elegans N2", "endpoint-result": 5.15}
{"compound": "CC(C)Oc1cccc(NC(=O)c2ccccc2C(F)(F)F)c1", "system-name": "Caenorhabditis elegans N2", "endpoint-result": 6.3}
{"compound": "c1ccc2c(c1)oc1ccccc12", "system-name": "Caenorhabditis elegans N2", "endpoint-result": 5.1}
{"compound": "CC1(C)NC(=O)NC1=O", "system-name": "Caenorhabditis elegans N2", "endpoint-result": 5.93}
{"compound": "NS(=O)(=O)C(F)(F)C(F)(F)C(F)(F)C(F)(F)C(F)(F)C(F)(F)C(F)(F)C(F)(F)F [Perfluorooctanesulfonamide]", "system-name": "Caenorhabditis elegans N2", "endpoint-result": 3.86}

====

Collected mean nematode size ln(EXT) (ln) values appear next to each entry.
# Test system: Caenorhabditis elegans N2
# assay-explanation: mean nematode size ln(EXT) after 48 h, plate-adjusted (DMSO control set to 6) (ln(EXT), control-adjusted); higher = larger nematodes / less growth inhibition
# run-conditions: 200 µM; exposure time 48 h
Where a name gives a salt, the structure may show the parent alone.

{"compound": "C[N+]1(C)CCCCC1 [Mepiquat chloride]", "mean nematode size ln(EXT) (ln)": 5.9}
{"compound": "CNC(=O)Oc1cccc2ccccc12", "mean nematode size ln(EXT) (ln)": 5.67}
{"compound": "CCC(C)(CC)c1cc(NC(=O)c2c(OC)cccc2OC)on1", "mean nematode size ln(EXT) (ln)": 5.93}
{"compound": "N#Cc1ccc(N(CC(N)=O)CC(F)(F)F)cc1C(F)(F)F", "mean nematode size ln(EXT) (ln)": 5.47}
{"compound": "CC(C)(c1ccccc1)c1ccc(O)cc1", "mean nematode size ln(EXT) (ln)": 4.34}
{"compound": "CCCCCCC(=O)OCC", "mean nematode size ln(EXT) (ln)": 6.02}
{"compound": "COc1ccc(-c2ccccc2)cc1NNC(=O)OC(C)C [Bifenazate]", "mean nematode size ln(EXT) (ln)": 5.87}
{"compound": "CCCC(=O)OCCC(C)C [Isoamyl butyrate]", "mean nematode size ln(EXT) (ln)": 6.13}
{"compound": "CS(=O)(=O)OCCCCOS(C)(=O)=O", "mean nematode size ln(EXT) (ln)": 5.8}
{"compound": "CC(C)c1ccc(C(=O)N=C(N)N)cc1S(C)(=O)=O [Cariporide mesylate (HOE642)]", "mean nematode size ln(EXT) (ln)": 5.71}
{"compound": "CC1=C2C[C@H]3[C@@H](CC=C4C[C@@H](O)CC[C@@]43C)[C@@H]2CC[C@]12O[C@@H]1C[C@H](C)CN[C@H]1[C@H]2C", "mean nematode size ln(EXT) (ln)": 5.39}
{"compound": "CCCCCCCCN(C)C", "mean nematode size ln(EXT) (ln)": 5.65}
{"compound": "CC(C)(C)c1cc(C(C)(C)C)c(O)c(C(C)(C)C)c1", "mean nematode size ln(EXT) (ln)": 4.67}
{"compound": "Clc1cccc(C(Cl)(Cl)Cl)n1", "mean nematode size ln(EXT) (ln)": 4.05}
{"compound": "O=C(O)Cc1ccccc1Nc1c(Cl)cccc1Cl [Diclofenac sodium salt]", "mean nematode size ln(EXT) (ln)": 5.83}
{"compound": "COCC(C)N(C(=O)CCl)c1c(C)csc1C (stereo unspecified)", "mean nematode size ln(EXT) (ln)": 5.99}
{"compound": "CCCCCCCC(=O)O", "mean nematode size ln(EXT) (ln)": 5.78}
{"compound": "CCOc1ccc(C(C)(C)COCc2cccc(Oc3ccccc3)c2)cc1", "mean nematode size ln(EXT) (ln)": 5.47}
{"compound": "CCCCOCCOCCO", "mean nematode size ln(EXT) (ln)": 5.96}
{"compound": "CCCCc1ccc2c(n1)[C@@H](c1ccc(OC)cc1C[C@H](C)C(=O)O)[C@H](C(=O)O)[C@H]2c1ccc2c(c1)OCO2", "mean nematode size ln(EXT) (ln)": 5.88}
{"compound": "CSc1ccc(Oc2ccc(S(N)(=O)=O)cc2CN(C)C)cc1C", "mean nematode size ln(EXT) (ln)": 5.17}
